# Tested on: HT-29
# assay_remarks: NCI tumour cell line growth inhibition, 48 h
Activity calls are given as the source filed them. Cut-off read from the data, not from the text of the source: active = GI50 up to about 1.1 µM and inactive = higher.
observation_type: GI50

Ask: Return reported GI50 for target or system HT-29, item CCCN(CCC)CCc1ccc(OC2=CCN(C)CC2)cc1 .
Result: 16 µM (inactive)

Ask: Report GI50 from HT-29 testing of COc1ccc2c(c1)[C@@H](NC(C)=O)CCc1cc(OC)c(OC)c(OC)c1-2
Result: 0.0146 µM (active)

Ask: Param request: GI50 | system HT-29 | item COc1cc2c(cc1Cc1c(F)cccc1Cl)nc(-c1c(F)cccc1Cl)n2Cc1c(F)cccc1Cl
Result: 16.5 µM (inactive)

Ask: Quote HT-29 GI50 for entry CC(C(O)c1ccccc1)[N+](=O)[O-] (stereo not given) .
Result: 27.2 µM (inactive)

Ask: Write down the reported GI50 (system: HT-29) of COc1cc2c(cc1O)Cc1c-2[n+](C)cc2cc(OC)c(OC)cc12
Result: > 83 µM (inactive)

Ask: Fill in GI50 for [O-][N+]1=[N+]([O-])[C@@H](c2ccccc2)[C@H]1c1ccccc1 tested with HT-29.
Result: 18.3 µM (inactive)

Ask: Report GI50 under test system HT-29 for OCC(CCc1c[nH]c2ccccc12)c1c[nH]c2ccccc12 (stereo not given) .
Result: 17 µM (inactive)

Ask: Tell me its GI50 on HT-29: Cc1ccc(C(=O)/C=C2/Nc3ccc([N+](=O)[O-])cc3N/C2=C/C(=O)c2ccc(C)cc2)cc1
Result: > 100 µM (inactive)

Ask: Provide HT-29 GI50 reading for CC1=NC(C)(COC(=O)C2(C)NC(C)(CO)CO2)COC1=O (stereo not given) .
Result: > 100 µM (inactive)

Ask: # lookup: HT-29 GI50, key = O=C1C(=O)N(c2nccs2)C(=O)C(=O)C1c1nc2ccccc2s1
Result: > 100 µM (inactive)

Ask: Under HT-29, report GI50 for c1cncc(C2(c3cc4ccccc4[nH]3)COCO2)c1 (stereo not given)
Result: > 100 µM (inactive)

Ask: Tell me its GI50 on HT-29: O=C(CCc1ccc(O)c(O)c1)NCCc1cc(OCc2ccccc2)cc(OCc2ccccc2)c1
Result: 10.1 µM (inactive)

Ask: For HT-29, give GI50 of the listed compound: Cc1cn(C(CO)OC(CO)CN(O)C2C3CC4CC(C3)CC2C4)c(=O)[nH]c1=O (stereo not given)
Result: > 100 µM (inactive)

Ask: System HT-29. Read-out GI50. Item COc1cc2c(cc1OCCCN1CCN(C)CC1)N=C[C@@H]1CCCN1C2=O . Report value.
Result: 1.74 µM (inactive)

Ask: Find GI50 for CC(C)(C)C1CCC2c3c([nH]c4ccccc34)C3C(=O)N(c4ccc([N+](=O)[O-])cc4)C(=O)C3C2C1 (stereo not given) on HT-29 and write it down.
Result: 3.89 µM (inactive)

Ask: Provide the reported GI50 (system: HT-29) for Nc1ccccc1SC(/C=C/NNC1=NN=C(c2ccccc2)C(c2ccccc2)N1)c1ccccc1 (stereo not given)
Result: 17.1 µM (inactive)

Ask: Provide the reported GI50 (system: HT-29) for Cc1cc(Cl)ccc1NC(=O)C(=O)C(C(=O)c1ccc2ccccc2c1)C1OC(=O)c2ccccc21 (stereo not given)
Result: 28.4 µM (inactive)

Ask: Look up and report measured GI50 (HT-29) for the following compound: Cc1ccc(S(=O)(=O)Oc2coc(CO)cc2=O)cc1
Result: 12.4 µM (inactive)

Ask: Please look at O=C1Cc2c(-c3ccccc3)cc(-c3ccccc3)nc2-c2ccccc2N1 and tell me its recorded GI50 on HT-29.
Result: 3.61 µM (inactive)

Ask: Give reported GI50 for O=S(=O)(O)c1cc(S(=O)(=O)O)c2cc(/N=N/c3c(O)ccc4ccccc34)ccc2c1 (HT-29)
Result: > 100 µM (inactive)

Ask: Look up and report GI50, with HT-29 as system, for COc1ccc(/C=C/c2ccnc3ccccc23)cc1
Result: 10.4 µM (inactive)

Ask: Give reported GI50 for O=c1oc2c(Cl)cc(Cl)cc2cc1-c1cn2c(n1)sc1ccccc12 (HT-29)
Result: 71.1 µM (inactive)

Ask: Fetch value of GI50 on HT-29 for O=C1Nc2ccccc2/C1=N/NC(=S)Nc1ccc([N+](=O)[O-])cc1 .
Result: 18.4 µM (inactive)

Ask: Provide GI50, tested on HT-29, for CCCCCCCCCCCCCCCC1(OC)C[N+](C)(C)CCO1 (stereo not given) .
Result: 1.22 µM (inactive)

Ask: Look up and report measured GI50 (HT-29) for the following compound: CCc1ccccc1NC(=O)CCc1nnc(S)[nH]1
Result: > 100 µM (inactive)

Ask: Consider the compound O=C(CCc1ccc(O)cc1)NCCCNC(=O)CCc1ccc(O)cc1 tested on HT-29; state its GI50.
Result: > 100 µM (inactive)

Ask: Given COc1ccc(-c2cc(=O)c3c(O)cc(O)cc3o2)cc1OC , report its GI50 on HT-29.
Result: 81.8 µM (inactive)

Ask: Recall the reported GI50 of CC12O[C@]3([C@H](C(=O)N4CCOC43C)[C@H]1Cl)[C@H]1O[C@H]12 (stereo not given in full) on HT-29 and write it down.
Result: > 100 µM (inactive)

Ask: Find the measured GI50 of COc1ccc(C2=NN(C(=N)S)C(c3ccccc3)C2)cc1 (stereo not given) with HT-29 as test system.
Result: 38.9 µM (inactive)

Ask: Answer with GI50 of COc1ccc2c(c1)-c1nn(CCN(C)C)c3ccc(C(=O)NCCCN(C)CCCNC(=O)c4ccc5c6c(c7cc(OC)ccc7nc46)NN5CCN(C)C)c(c13)N2 measured for HT-29.
Result: 0.0213 µM (active)

Ask: Report GI50 under test system HT-29 for C=C(C)[C@@H]1CC[C@]2(COC(C)=O)CC[C@]3(C)[C@H](CC[C@@H]4[C@@]5(C)CC[C@H](OC(C)=O)C(C)(C)[C@@H]5CC[C@]43C)[C@@H]12 [BETULIN DIACETATE] .
Result: > 50 µM (inactive)

Ask: // fetch GI50; item: CS(=O)(=O)OCCCCOS(C)(=O)=O [BUSULFAN] ; system: HT-29
Result: 247 µM (inactive)

Ask: Give GI50 only, for COc1ccc(N2C(=O)c3c(c4[nH]c5ccc(OC)cc5c4c4ccc(C(C)(C)C)cc34)C2=O)cc1 , using HT-29 data.
Result: > 100 µM (inactive)

Ask: Provide GI50, tested on HT-29, for N#Cc1c(-c2ccc([N+](=O)[O-])cc2)c(C#N)c(=O)n(NS(=O)(=O)c2ccccc2)c1S .
Result: 36.3 µM (inactive)

Ask: State GI50 (HT-29) of COc1ccc(/C=C(\Cl)c2ccc(OC)c(OC)c2)cc1OC .
Result: > 100 µM (inactive)

Ask: Name the recorded GI50 of O=C(Nc1ccccc1)OCc1nc2c([nH]1)C(=O)C=CC2=O , assay system HT-29.
Result: 27.5 µM (inactive)

Ask: # return GI50 of COc1ccccc1/[N+]([O-])=C/c1ccccc1OC(=S)S (system: HT-29)
Result: > 100 µM (inactive)

Ask: Tell me its GI50 on HT-29: COc1ccc2nc(NC(=O)/C(C#N)=C/c3ccccc3)sc2c1
Result: 46.7 µM (inactive)

Ask: Write down measured GI50 (HT-29) for this compound. CCOC(=O)CC(=O)N(c1ccc(OC)cc1)C(C(=O)OC)c1ccccc1 (stereo not given)
Result: > 100 µM (inactive)

Ask: # return GI50 of CCc1n[nH]c(=O)n1NC(=O)/C=C\C(=O)O (system: HT-29)
Result: > 100 µM (inactive)

====

Please go through the items and note down their GI50.
# System: SF-268
# assay_remarks: NCI tumour cell line growth inhibition, 48 h
Active and inactive are the calls of the source. No stated cut-off is given here; in the data, active = GI50 up to about 1.1 µM and inactive = higher.

Ask: Name the recorded GI50 of CC(=O)NC1=C(C)C(=O)c2c(nc3n2CCC3O)C1=O (stereo unspecified) , assay system SF-268.
Result: 34.8 µM (inactive)

Ask: Jot down GI50 (SF-268) of Nc1nc(N)c2ncn(Cc3ccccc3)c2n1 .
Result: > 100 µM (inactive)

Ask: Find GI50 for COc1cccc(NC(=O)C(C#N)=C(SC)SC)c1 on SF-268 and write it down.
Result: > 100 µM (inactive)

Ask: Find the measured GI50 of Cc1ccc(S(=O)(=O)OC2CN3CCC2CC3)cc1 (stereo unspecified) with SF-268 as test system.
Result: > 100 µM (inactive)

Ask: Report its GI50 with SF-268 as the test system: CC(C(O)c1ccccc1)[N+](=O)[O-] (stereo unspecified)
Result: 31.5 µM (inactive)

Ask: Give GI50; test system SF-268; compound Cc1ccc(-n2cnc3c(N/N=C4\SCC(=O)N4c4ccccc4)ncnc32)cc1
Result: 4.88 µM (inactive)

Ask: # assay system SF-268: give GI50 of COC(=O)c1c(C(=O)OC)c(C(c2ccccc2)c2ccccc2)n(-c2ccccc2)c1Cl
Result: > 10 µM (inactive)

Ask: Give GI50 for COC1C(=[N+]=[N-])C(=O)NC(=O)N1C1OC(COC(c2ccccc2)(c2ccccc2)c2ccccc2)C(O)C1O (stereo unspecified) tested on SF-268.
Result: 18.1 µM (inactive)

Ask: Fill: GI50 (SF-268) for this compound Cc1ccc(S(=O)(=O)NNCNC(=O)c2ccccc2)cc1
Result: > 100 µM (inactive)

Ask: Answer with GI50 of CSc1c(C#N)c(S)[nH]c(=O)c1C#N measured for SF-268.
Result: 32.7 µM (inactive)

Ask: Would you please give the reported GI50 of CN(C)CC1CCC/C(=C\c2ccc(OC(=O)/C=C/c3ccc(Cl)c(Cl)c3)cc2)C1=O (stereo unspecified) with SF-268?
Result: 9.29 µM (inactive)
